Items are presented alongside their recorded half-life at 200 µM.
experiment: Half life in rat liver microsomes at 200 uM by HPLC; format: ADME, Microsome
Just the number plus its unit, please.

Worked examples, 3 compounds total:
{"columns": ["Compound", "Readout Type", "Reported Value"],
 "data": [
  ["CS(=O)(=O)Oc1ccc(S(=O)(=O)CC2CS2)cc1 (centres undefined)", "half-life at 200 µM", "45.3 min"],
  ["CCCS(=O)(=O)Oc1ccc(S(=O)(=O)CC2CS2)cc1 (centres undefined)", "half-life at 200 µM", "29.8 min"],
  ["CC(C)CS(=O)(=O)Oc1ccc(S(=O)(=O)CC2CS2)cc1 (centres undefined)", "half-life at 200 µM", "36.1 min"]
]}

Request: # get_value(readout='half-life at 200 µM', item= CCS(=O)(=O)Oc1ccc(S(=O)(=O)CC2CS2)cc1 (centres undefined) )
Response: 31.8 min
